Test: Cytotoxicity against PDGF-BB-induced rat VSMC at 50 uM

- compound: "C[C@H]1O[C@@H](O[C@H]2CC[C@@]3(C)[C@@H](CC[C@]4(C)[C@@H]3C=C[C@]35OC[C@@]6(CCC(C)(C)C[C@H]63)[C@@H](O)C[C@]54C)[C@]2(C)CO)[C@H](O)[C@@H](O[C@@H]2O[C@H](CO)[C@@H](O)[C@H](O)[C@H]2O)[C@H]1O[C@@H]1OC[C@@H](O)[C@H](O)[C@H]1O [BUDDLEJASAPONIN III]"
  Activity: "Toxic"
- compound: "C[C@H]1O[C@@H](O[C@H]2CC[C@@]3(C)[C@@H](CC[C@]4(C)[C@@H]3C=C[C@]35OC[C@@]6(CCC(C)(C)C[C@H]63)[C@@H](O)C[C@]54C)[C@]2(C)CO)[C@H](O[C@@H]2O[C@H](CO)[C@@H](O)[C@H](O)[C@H]2O)[C@@H](O[C@@H]2O[C@H](CO)[C@@H](O)[C@H](O)[C@H]2O)[C@H]1O [BUDDLEJASAPONIN IV]"
  Activity: "Toxic"
